Origin of the recorded values: PubChem BioAssay (NCI)

tested on: SNB-75 CNS; assay: NCI tumour cell line growth inhibition, 48 h; in the data active = GI50 below about 0.43 µM; inactive = the rest
I would appreciate it if you answered using one of these outcomes: active, inactive

These solved cases illustrate the format of a correct answer.
Compound | Label class
CCn1ccnc1C(=O)/C=C/c1ccc(CC(=O)Nc2ccc(F)cc2)cc1 | inactive
Fc1ccc2nc(-c3nc(-c4ccccc4)n4ccccc34)[nH]c2c1 | inactive
Clc1nc(Cl)c2ncn(CCOCCn3cnc4c(Cl)nc(Cl)nc43)c2n1 | active
O=S(=O)(O)c1ccc2cc3nn(-c4ccc(/C=C/c5ccc(-n6nc7cc8ccc(S(=O)(=O)O)cc8cc7n6)cc5S(=O)(=O)O)c(S(=O)(=O)O)c4)nc3cc2c1 | inactive
CC1SC(c2ccc(Cl)cc2)N(CCc2cccs2)C1=O (centres undefined) | inactive
C=CCN(CC=C)C(=O)[C@H](CC)[C@@H]1CC[C@@H](C)[C@@H]([C@H](C)[C@@H](O)[C@@H](C)C(=O)[C@H](CC)C2O[C@]3(C=C[C@@H](O)[C@]4(CC[C@@](C)([C@H]5CC[C@](O)(CC)[C@H](C)O5)O4)O3)[C@H](C)C[C@@H]2C)O1 (some centres undefined) | inactive
Cc1ccc(-n2c(-c3cc4c([nH]c5ccccc54)c(-c4cccc(O)c4)n3)n[nH]c2=S)cc1 | inactive
COc1c(OC(C)C)cc2cc(O)c(C(=O)NC3Cc4ccc(c(Cl)n4)O[C@@H]4C=C5C#C/C(=C\C#CC6OC56C4OC4CC(C)(O)C(O)C(C)O4)C(OC4CC(O)C(N(C)C)C(C)O4)COC3=O)cc2c1OC (some centres undefined) | inactive
COc1cc(/C=C/C(=O)O[C@H]2[C@H](O[C@@H]3O[C@@H](C)[C@H](O)[C@@H](O)[C@H]3O)[C@@H](O)[C@H](OCCc3ccc(O)c(O)c3)O[C@@H]2COC2OCC(O)(CO)C2O)ccc1O (some centres undefined) | inactive
c1ccc2c(CNCCN3CCNCC3)c3ccccc3c(CNCCN3CCNCC3)c2c1 | inactive

Test call for this compound, please: `COc1ccc2nc3cc(Cl)ccc3c(N3CCN(c4ccnc(N5CCN(C)CC5)n4)CC3)c2c1` inactive

Test call for this compound, please: `Cn1c(C(=O)c2cccc3ccccc23)nc2ccccc21` inactive

Test call for this compound, please: `C/C(=N\NC(=S)N1CCN(c2ccccn2)CC1)c1ncccn1` inactive

Test call for this compound, please: COc1ccc(COc2cc3oc(=O)c4cc(C(C)O)ccc4c3cc2OC)cc1 (centres undefined) inactive

###

system: DU-145 prostate; assay: NCI tumour cell line growth inhibition, 48 h
# reported TGI; entries follow
# number only, unit µM dropped from output

The cases that follow already have their TGI on record.
Compound | Reading unit | TGI
COc1ccccc1C1c2cc3c(cc2OC(N2CCCC2)C1C)OCO3 (centres undefined) | µM | 26.9
COc1ccc2c(c1)C(=O)c1c-2c(=O)n(CCCN(C)C)c2cc(OC)c(OC)cc12 | µM | 10.9
COc1cc2c(cc1NC(=O)C(Cl)Cl)-c1ccc(NC(=O)C(Cl)Cl)cc1C2 | µM | 0.804
C=CCN(CC=C)C(=O)[C@H](CC)[C@@H]1CC[C@@H](C)[C@@H]([C@H](C)[C@@H](O)[C@@H](C)C(=O)[C@H](CC)C2O[C@]3(C=C[C@@H](O)[C@]4(CC[C@@](C)([C@H]5CC[C@](O)(CC)[C@H](C)O5)O4)O3)[C@H](C)C[C@@H]2C)O1 (some centres undefined) | µM | 5.61

Entry `COc1ccc(-c2c3c(N)c4c(nc3nc3c2c(C)nn3-c2ccccc2)CCCC4)cc1` : reported TGI = ? 16.4

###

tested on: 786-0 renal; assay: NCI tumour cell line growth inhibition, 48 h
Quantity measured: TGI

The cases that follow already have their TGI on record.
Compound | TGI
COc1c(CC=C(C)C)c(O)c(C(CC(C)C)c2c(O)c(CC=C(C)C)c(O)c(C(C)=O)c2O)c(O)c1C(C)=O (stereo not given) | 11.9 µM
CSC(=N)N1N=C2/C(=C/c3ccccc3)CCC[C@H]2[C@H]1c1ccccc1 | 20.3 µM
Cc1cc(O)c2c3c(ccc2c1)C(=O)c1c(O)cccc1C3=O | > 100 µM
CC1CCN(CCOc2ccc(CNc3ccc4nc(CCC5CCCCC5)[nH]c4c3)cc2)CC1 | 2.79 µM

Continue with the compound presented below.
Entry O=c1cc(CNC2CC3CCC2C3)[nH]c(=O)[nH]1 (stereo not given) : reported TGI = ? > 100 µM

###

tested on: SR leukemia; assay: NCI tumour cell line growth inhibition, 48 h
# reported TGI; entries follow

Molecule | Quantity measured | Assay result
O=C1C=C(C2=C(C3=CC(=O)c4ccccc4C3=O)C(=O)c3ccccc3C2=O)C(=O)c2ccccc21 | TGI | > 100 µM
O=C(c1ccco1)c1c(C(F)(F)F)n([O-])c2cc(F)c(F)cc2[n+]1=O | TGI | 0.39 µM
O/N=C1/CCCc2nonc21 | TGI | > 100 µM
S=C(NCc1ccc2c(c1)OCO2)N1CCN(c2ncnc3c2oc2ccccc23)CC1 | TGI | > 100 µM
COc1ccc2c(c1)C(=O)c1c-2c(=O)n(CCCN(C)C)c2cc(OC)c(OC)cc12 | TGI | 7.63 µM

Entry `CC(C)CCC[C@@H](C)[C@H]1CC[C@H]2C3=C[C@H](OS(=O)(=O)O)[C@@]4(O)C[C@@H](O)CC[C@]4(C)[C@@]3(O)CC[C@]12C` : reported TGI = ? > 100 µM

Entry `Nc1n[nH]c(CCCCCCCc2nc(N)n[nH]2)n1` : reported TGI = ? > 100 µM

Entry C=C(C)CCC1CC=[N+]([O-])OC1C(C)(C)C (centres undefined) : reported TGI = ? > 100 µM

Entry `COc1ccc(NC(=O)C(=O)Cc2nc3ccc(C(=O)c4ccccc4)cc3[nH]c2=O)c([N+](=O)[O-])c1` : reported TGI = ? 51.1 µM

###

test system: SF-268 CNS; assay: NCI tumour cell line growth inhibition, 48 h
Quantity measured: TGI

The cases that follow already have their TGI on record.
Molecule | Assay system | TGI
Cc1cn(C2CC(O)C(Cn3nncc3Cn3ncc(=O)[nH]c3=O)O2)c(=O)[nH]c1=O (stereo not given) | SF-268 CNS | > 100 µM
Cn1c(C(=O)c2cccc3ccccc23)nc2ccccc21 | SF-268 CNS | > 100 µM
C/C(=N\NC(=S)Nc1ccc([N+](=O)[O-])cc1)c1nc2ncccc2[nH]1 | SF-268 CNS | > 100 µM
C=CC(=O)N[C@@H](/C=C/C(=O)OCC)Cc1ccc(-c2cc(Cl)cc(Cl)c2)cc1 | SF-268 CNS | > 100 µM

Continue with the molecule presented below.
Notebook entry, SF-268 CNS assay: TGI of `N#Cc1cc2c(cc1Cl)Sc1nnc(Nc3cccc4ccccc34)n1S2(=O)=O` = ? 10.1 µM

###

system: HOP-62 NSCLC; assay: NCI tumour cell line growth inhibition, 48 h
Quantity measured: TGI (µM)
# number only, unit µM dropped from output

The cases that follow already have their TGI on record.
Molecule | Assay result
O=C(/C=C(\Nc1ccccc1O)c1ccc(Br)cc1)C(Cl)(Cl)Cl | 31.6
CC1CCC2(C)C(CC=C(C=O)C2(O)C=O)C12CO2 (stereo not given) | 40.3
CC1(C)[C@H](O)[C@H](F)C[C@@]2(C)Oc3ccc(C(=O)Nc4ccc5c(c4)NC(=O)C54CCN(CCCCC#N)CC4)cc3C[C@H]12 | 5.61

Notebook entry, HOP-62 NSCLC assay: TGI of `O=[N+]([O-])/C=C/c1ccc(Cl)cc1Cl` = ? 28.6

###

tested on: UO-31 renal; experiment: NCI tumour cell line growth inhibition, 48 h
# reported GI50; entries follow

The cases that follow already have their GI50 on record.
Compound | Assay system | Assay result
CN1CCCC1c1cccnc1.O=C(O)c1ccccc1O.O=C([O-])c1ccccc1[OH2+].O=C([O-])c1ccccc1[OH2+].[Mn+2] (stereo not drawn) | UO-31 renal | > 100 µM
Nc1nc2ccccc2c2c1S(=O)(=O)c1ccc(Cl)cc1C2=O | UO-31 renal | 1.21 µM
O=C1C(Nc2cccc(O)c2)=C(Sc2ccccc2)C(=O)N1Cc1ccccc1 | UO-31 renal | 4.98 µM
Cc1ccc(Cl)cc1-n1c(C)nc2c(cnn2-c2ccnc3c(C(F)(F)F)cccc23)c1=O | UO-31 renal | > 100 µM
COc1ccc(-c2[nH]c3ccccc3c2/C=C(\C#N)S(=O)(=O)c2ccccc2)cc1 | UO-31 renal | 1.88 µM
c1ccc2c(CNCCN3CCNCC3)c3ccccc3c(CNCCN3CCNCC3)c2c1 | UO-31 renal | > 100 µM

Entry `O=C1c2ccccc2C(=O)c2c1cc1c(c2[N+](=O)[O-])OCO1` : reported GI50 = ? 1.54 µM

Entry `O=S(=O)(NCCCNc1nccc(-c2c(-c3ccc(F)cc3)nc3sccn23)n1)c1ccc(F)cc1` : reported GI50 = ? 3.8 µM
